Assay: Plasma concentrations and pharmacokinetic parameters after topical ocular, subcutaneous and intravitreal administration
Type: in vivo, New Zealand White rabbits
Conditions: New Zealand White, rabbit, plasma, other: intravitreal, 2.5 mg/eye, intravitreal 2.5 mg/eye (~1.55 mg/kg), solution; 24.0 hr; read-out: plasma Average
Structures can show the parent of a compound that is named as a salt.
readout type: concentration at 24 hr (ng/mL)
Field: numeric (ng/mL). Do not append units.

Q) I have this compound here, COC(=O)N[C@@H](Cc1ccccc1)C(=O)N[C@@H](Cc1ccc(NS(=O)(=O)O)cc1)c1csc(-c2cccs2)n1 [Compound 1 sodium salt] , and I need its recorded concentration at 24 hr.
A) 16.9

----------
Test: Ocular tissue concentrations (aqueous humor, vitreous humor, iris, retina, choroid, cornea) after topical ocular, subcutaneous and intravitreal administration
Format: in vivo, New Zealand White rabbits
Details: New Zealand White, rabbit, aqueous humor, topical, 1.2 mg/eye, Group 1 topical ocular 1.2 mg/eye; 0.5 hr; read-out: aqueous humor Average Conc.
Procedure: To measure the concentration of Compound 1 in plasma and ocular tissues following topical ocular, subcutaneous, and intravitreal administration, New Zealand White rabbits were administered Compound 1, and plasma and ocular samples were collected at pre-determined time points. […] Ocular tissue samples from both eyes of each animal were collected and weights were recorded. Plasma and ocular tissue sample concentrations of Compound 1 were determined by LC-MS/MS. […]
Structures can show the parent of a compound that is named as a salt.
readout type: concentration at 0.5 hr
Express the reported value numerically, then name its unit.

Q) I have this compound here, COC(=O)N[C@@H](Cc1ccccc1)C(=O)N[C@@H](Cc1ccc(NS(=O)(=O)O)cc1)c1csc(-c2cccs2)n1 [Compound 1 sodium salt] , and I need its recorded concentration at 0.5 hr.
A) 45.8 ng/g

----------
Assay: Ocular tissue concentrations (aqueous humor, vitreous humor, iris, retina, choroid, cornea) after topical ocular, subcutaneous and intravitreal administration
Type: in vivo, New Zealand White rabbits
Conditions: New Zealand White, rabbit, choroid homogenate, subcutaneous, 5 mg/kg/dose, TABLE 16: Choroid homogenate, 2 hr, OD; free acid, subcutaneous 5 mg/kg/dose, Group 3; read-out: Choroid Conc. (ng/mL) OD
readout type: concentration at 2 h (ng/mL)
Field: numeric (ng/mL). Do not append units.

Q) I have this compound here, COC(=O)N[C@@H](Cc1ccccc1)C(=O)N[C@@H](Cc1ccc(NS(=O)(=O)O)cc1)c1csc(-c2cccs2)n1 [Compound 1] , and I need its recorded concentration at 2 h.
A) 3.32

----------
Test: Ocular tissue concentrations (aqueous humor, vitreous humor, iris, retina, choroid, cornea) after topical ocular, subcutaneous and intravitreal administration
Format: in vivo, New Zealand White rabbits
Settings: New Zealand White, rabbit, cornea, topical, 1.2 mg/eye, topical ocular 1.2 mg/eye (~0.7 mg/kg/dose); 1 hr; read-out: Cornea tissue Average
Counter-ions that a name gives are not always drawn.
readout type: concentration at 1 hr (ng/g)
Field: numeric (ng/g). Do not append units.

Q) I have this compound here, COC(=O)N[C@@H](Cc1ccccc1)C(=O)N[C@@H](Cc1ccc(NS(=O)(=O)O)cc1)c1csc(-c2cccs2)n1 [Compound 1 sodium salt] , and I need its recorded concentration at 1 hr.
A) 548

----------
Test: Ocular tissue concentrations (aqueous humor, vitreous humor, iris, retina, choroid, cornea) after topical ocular, subcutaneous and intravitreal administration
Format: in vivo, New Zealand White rabbits
Details: New Zealand White, rabbit, retina homogenate, subcutaneous, 5 mg/kg/dose, Retina homogenate, 1 hr, OS; free acid, subcutaneous 5 mg/kg/dose, Group 3; read-out: Retina Conc. (ng/mL) OS
readout type: concentration at 1 h (ng/mL)
Field: numeric (ng/mL). Do not append units.

Q) I have this molecule here, `COC(=O)N[C@@H](Cc1ccccc1)C(=O)N[C@@H](Cc1ccc(NS(=O)(=O)O)cc1)c1csc(-c2cccs2)n1` , and I need its recorded concentration at 1 h.
A) 0.63

----------
Assay: Ocular tissue concentrations (aqueous humor, vitreous humor, iris, retina, choroid, cornea) after topical ocular, subcutaneous and intravitreal administration
Type: in vivo, New Zealand White rabbits
Conditions: New Zealand White, rabbit, cornea homogenate, other: intravitreal, 2.5 mg/eye, Cornea homogenate, 48 hr, right eye, intravitreal 2.5 mg/eye (group 5), individual animals; read-out: Conc. (ng/mL) OD
readout type: concentration at 48 hr (ng/mL)
Field: numeric (ng/mL). Do not append units.

Q) I have this compound here, `COC(=O)N[C@@H](Cc1ccccc1)C(=O)N[C@@H](Cc1ccc(NS(=O)(=O)O)cc1)c1csc(-c2cccs2)n1` , and I need its recorded concentration at 48 hr.
A) 437

----------
Experiment: Ocular tissue concentrations (aqueous humor, vitreous humor, iris, retina, choroid, cornea) after topical ocular, subcutaneous and intravitreal administration
Format: in vivo, New Zealand White rabbits
Conditions: New Zealand White, rabbit, cornea, subcutaneous, 5 mg/kg/dose, Cornea, 1 hr, OD; sodium salt, subcutaneous 5 mg/kg/dose, Group 2; read-out: Cornea Conc. (ng/g) OD
readout type: concentration at 1 h (ng/g)
Field: numeric (ng/g). Do not append units.

Q) I have this molecule here, COC(=O)N[C@@H](Cc1ccccc1)C(=O)N[C@@H](Cc1ccc(NS(=O)(=O)O)cc1)c1csc(-c2cccs2)n1 [Compound 1] , and I need its recorded concentration at 1 h.
A) 26.1

----------
Assay: Plasma concentrations and pharmacokinetic parameters after topical ocular, subcutaneous and intravitreal administration
Assay type: in vivo, New Zealand White rabbits
Conditions: New Zealand White, rabbit, plasma, other: intravitreal, 2.5 mg/eye, intravitreal 2.5 mg/eye (~1.54 mg/kg), suspension; 72.0 hr; read-out: plasma Conc., individual rabbit
Protocol: To measure the concentration of Compound 1 in plasma and ocular tissues following topical ocular, subcutaneous, and intravitreal administration, New Zealand White rabbits were administered Compound 1, and plasma and ocular samples were collected at pre-determined time points. […] Each blood sample was collected on Day 3 post dose at pre-determined time points from the rabbits via an ear vessel and placed into chilled polypropylene tubes containing sodium heparin as an anticoagulant. […]
readout type: concentration at 72 h
Express the reported value numerically, then name its unit.

Q) I have this molecule here, COC(=O)N[C@@H](Cc1ccccc1)C(=O)N[C@@H](Cc1ccc(NS(=O)(=O)O)cc1)c1csc(-c2cccs2)n1 [Compound 1 free acid] , and I need its recorded concentration at 72 h.
A) 1.83 ng/mL

----------
Assay: Ocular tissue concentrations (aqueous humor, vitreous humor, iris, retina, choroid, cornea) after topical ocular, subcutaneous and intravitreal administration
Format: in vivo, New Zealand White rabbits
Details: New Zealand White, rabbit, aqueous humor, other: intravitreal, 2.5 mg per eye, Group 5 intravitreal 2.5 mg per eye; 24 hr; read-out: aqueous humor Average Conc.
readout type: concentration at 24 hr (ng/g)
Field: numeric (ng/g). Do not append units.

Q) I have this compound here, COC(=O)N[C@@H](Cc1ccccc1)C(=O)N[C@@H](Cc1ccc(NS(=O)(=O)O)cc1)c1csc(-c2cccs2)n1 [Compound 1 free acid] , and I need its recorded concentration at 24 hr.
A) 4270

----------
Assay: Ocular tissue concentrations (aqueous humor, vitreous humor, iris, retina, choroid, cornea) after topical ocular, subcutaneous and intravitreal administration
Format: in vivo, New Zealand White rabbits
Details: New Zealand White, rabbit, retina, subcutaneous, 5 mg/kg/dose, TABLE 16: Retina, 1 hr, OD; free acid, subcutaneous 5 mg/kg/dose, Group 3; read-out: Retina Conc. (ng/g) OD
readout type: concentration at 1 h (ng/g)
Field: numeric (ng/g). Do not append units.

Q) I have this compound here, `COC(=O)N[C@@H](Cc1ccccc1)C(=O)N[C@@H](Cc1ccc(NS(=O)(=O)O)cc1)c1csc(-c2cccs2)n1` , and I need its recorded concentration at 1 h.
A) 10.4

----------
Test: Ocular tissue concentrations (aqueous humor, vitreous humor, iris, retina, choroid, cornea) after topical ocular, subcutaneous and intravitreal administration
Assay type: in vivo, New Zealand White rabbits
Conditions: New Zealand White, rabbit, choroid, other: intravitreal, 2.5 mg/eye, Choroid, 6.0 hr, OS; sodium salt, intravitreal 2.5 mg/eye, Group 4; read-out: Choroid Conc. (ng/g) OS
readout type: concentration at 6 hr (ng/g)
Field: numeric (ng/g). Do not append units.

Q) I have this molecule here, `COC(=O)N[C@@H](Cc1ccccc1)C(=O)N[C@@H](Cc1ccc(NS(=O)(=O)O)cc1)c1csc(-c2cccs2)n1` , and I need its recorded concentration at 6 hr.
A) 484000

----------
Experiment: Ocular tissue concentrations (aqueous humor, vitreous humor, iris, retina, choroid, cornea) after topical ocular, subcutaneous and intravitreal administration
Assay type: in vivo, New Zealand White rabbits
Details: New Zealand White, rabbit, iris homogenate, other: intravitreal, 2.5 mg/eye, Iris homogenate, 24 hr, left eye, intravitreal 2.5 mg/eye (group 5), individual animals; read-out: Conc. (ng/mL) OS
readout type: concentration at 24 h (ng/mL)
Field: numeric (ng/mL). Do not append units.

Q) I have this compound here, `COC(=O)N[C@@H](Cc1ccccc1)C(=O)N[C@@H](Cc1ccc(NS(=O)(=O)O)cc1)c1csc(-c2cccs2)n1` , and I need its recorded concentration at 24 h.
A) 14100
